Measured EC50 of individual entries
- assayedTarget: Vasopressin V2 receptor (Homo sapiens)
- Sequence (P30518 whole entry): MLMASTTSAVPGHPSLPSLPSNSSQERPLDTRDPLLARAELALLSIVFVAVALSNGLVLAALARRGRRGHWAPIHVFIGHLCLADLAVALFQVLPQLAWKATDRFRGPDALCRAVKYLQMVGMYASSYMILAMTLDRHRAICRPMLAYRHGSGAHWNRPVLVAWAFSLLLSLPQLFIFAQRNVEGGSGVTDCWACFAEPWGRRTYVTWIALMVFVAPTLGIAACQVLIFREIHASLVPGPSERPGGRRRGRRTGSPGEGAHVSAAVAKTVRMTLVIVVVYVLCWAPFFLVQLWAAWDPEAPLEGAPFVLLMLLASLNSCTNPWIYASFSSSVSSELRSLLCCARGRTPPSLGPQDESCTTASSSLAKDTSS
- assayComment: Agonist activity at recombinant human vasopressin V2 receptor expressed in HEK293 cells by luciferase reporter gene assay
- Type: functional, cell-based
- setupConditions: hek293; read-out: EC50
Bridge positions count the residues as written; N and C are the ends. Square brackets hold non-standard residues; d marks the D form. Peptide text beside a SMILES is read from it. Ala(cPent) = N[C@@H](CC1CCCC1)C(=O)O; 2Thi = N[C@@H](Cc1cccs1)C(=O)O; Orn = NCCC[C@H](N)C(=O)O; Dab = NCC[C@H](N)C(=O)O

>>> readoutvalue("CC[C@H](C)[C@@H]1NC(=O)[C@H](Cc2ccccc2)NC(=O)[C@@H](N)CSSC[C@@H](C(=O)N2CCC[C@H]2C(=O)N[C@@H](CCCN)C(=O)NCC(N)=O)NC(=O)[C@H](CC(N)=O)NC(=O)[C@H](CC(=O)NC)NC1=O (H-CFID(NHMe)NCP[Orn]G-NH2; disulfide 1-6)")
"> 10 µM"
>>> readoutvalue("CC[C@H](C)[C@@H]1NC(=O)[C@H](Cc2cccs2)NC(=O)[C@@H](N)CSSC[C@@H](C(=O)N2CCC[C@H]2C(=O)N[C@@H](CCCN)C(=O)NCC(N)=O)NC(=O)[C@H](CC(N)=O)NC(=O)[C@H](CC(N)=O)NC1=O (H-C[2Thi]INNCP[Orn]G-NH2; disulfide 1-6)")
"> 10 µM"

Data request: What value of EC50 has been recorded for this entry: CC[C@H](C)[C@@H]1NC(=O)[C@H](CC2CCCC2)NC(=O)[C@@H](N)CSSC[C@@H](C(=O)N2CCC[C@H]2C(=O)N[C@@H](CCN)C(=O)NCC(N)=O)NC(=O)[C@H](CC(N)=O)NC(=O)[C@H](CC(N)=O)NC1=O (H-C[Ala(cPent)]INNCP[Dab]G-NH2; disulfide 1-6)
Data returned: > 10 µM
